Tested on: HL-60
Experiment: Antiproliferative activity against human HL-60 cells assessed as inhibition of cell proliferation measured by MTT assay
Format: functional, cell-based
Metric: IC50 (µM)

Reference set, count: 2
# Compound, Unit Tag, Value Measured
rows = [
    ("Nc1nc(-c2ccccc2)cc(-c2cccs2)n1", "µM", 70.3),
    ("Nc1ccc(-c2cc(-c3cnn(-c4ccccc4)n3)nc(N)n2)cc1", "µM", 68.2),
]

a: Nc1nc(-c2ccccc2)cc(-c2cnn(-c3ccccc3)n2)n1
b: Nc1nc(-c2ccccc2)cc(-c2ccc[nH]2)n1
**Query** Determine, for a and b , which has the greater value of IC50. Answer format: the label of the selected item.
**Result** a

Values from ChEMBL document CHEMBL4808197
